- Assayed target: cynomolgus CD19 (cynomolgus)
- Method notes: Octet HTX (ForteBio), IgG on AHC sensor, 1:1 fit
Kd vs 2 nM: less than gives yes; not less than gives no.

1. CNG-CD19-105 (antibody, V domains shown) VH: QVQLVQSGAEVKKPGASVKVSCKASGYEFTDYIMHWVRQAPGQGLEWMGYINPYNDGSKYTEKFEGRVTMTSDTSISTAYMELSRLRSDDTAVYYCARGTYYYGPELFDYWGQGTTVTVSS VL: DIVMTQTPLSLSVTPGQPASISCKSSQRLETSTGTTYLNWYLQKPGQSPQLLIYRVSRRFSGVPDRFSGSGSGTDFTLKISRVEAEDVGVYYCLQLLEDPPTFGQGTKLEIK ... no
2. CNG-CD19-710 (antibody, V domains shown) VH: QVQLQESGPGLVKPSQTLSLTCTVSGVSISTSSMGVGWIRQHPGKGLEWIGHAWWDDDKRYNPALKSRVTISVDTSKNQFSLKLSSVTAADTAVYYCARMELWSYYFDPWGQGTLVTVSS VL: EIVLTQSPATLSLSPGERATLSCSASSSFSYMHWYQQKPGQAPRLLIYDTSKLASGIPARFSGSGSGTDFTLTISSLEPEDFAVYYCFQGSVYPFTFGQGTKLEIK ... yes
3. CNG-CD19-101 (antibody, V domains shown) VH: QVQLVQSGAEVKKPGASVKVSCKASGYDFTDYIMHWVRQAPGQGLEWMGYINPYNDGSKYTDKFQERVTMTSDTSISTAYMELSRLRSDDTAVYYCARGTYYYGPELFDYWGQGTTVTVSS VL: DIVMTQTPLSLSVTPGQPASISCKSSQSLETTTGTTYLNWYLQKPGQSPQLLIYRASKRFSGVPDRFSGSGSGTDFTLKISRVEAEDVGVYYCLQLLEDPYTFGQGTKLEIK ... no
4. CNG-CD19-104 (antibody, V domains shown) VH: QVQLVQSGAEVKKPGASVKVSCKASGYDFTDYIVHWVRQAPGQGLEWMGYINPYNDGSKYTEKFQGRVTMTSDTSISTAYMELSRLRSDDTAVYYCARGTYYYGPELFDYWGQGTTVTVSS VL: DIVMTQTPLSLSVTPGQPASISCKSGQSLETSTGTTYLNWYLQKPGQSPQLLIYRVSRRFSGVPDRFSGSGSGTDFTLKISRVEAEDVGVYYCLQLLEDPYTFGQGTKLEIK ... no
5. CNG-CD19-103 (antibody, V domains shown) VH: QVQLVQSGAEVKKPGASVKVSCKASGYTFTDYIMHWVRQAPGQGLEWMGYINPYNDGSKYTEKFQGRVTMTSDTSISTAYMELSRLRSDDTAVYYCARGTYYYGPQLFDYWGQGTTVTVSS VL: DIVMTQTPLSLSVTPGQPASISCKSSQSLETATGTTYLNWYLQKPGQSPQLLIYRVSRRFSGVPDRFSGSGSGTDFTLKISRVEAEDVGVYYCLQLLEDPYSFGQGTKLEIK ... no
6. CNG-CD19-109 (antibody, V domains shown) VH: QVQLVQSGAEVKKPGASVKVSCKASGYDFTDYIVHWVRQAPGQGLEWMGYINPYNDGSLYTEKFQGRVTMTSDTSISTAYMELSRLRSDDTAVYYCARGTYYYGPQLFDYWGQGTTVTVSS VL: DIVMTQTPLSLSVTPGQPASISCKSSQQLETSTGTTYLNWYLQKPGQSPQLLIYRASKRFSGVPDRFSGSGSGTDFTLKISRVEAEDVGVYYCLQLLEDPYSFGQGTKLEIK ... no
7. CNG-CD19-709 (antibody, V domains shown) VH: QVQLQESGPGLVKPSQTLSLTCTVSGGSISTSTMGVGWIRQHPGKGLEWIGFIWWDDDKRYNPNLKSRVTMSVDTSKNQFSLKLSSVTAADTAVYYCARMELWSYYFDPWGQGTLVTVSS VL: EIVLTQSPATLSLSPGERATLSCSASSSVGYMHWYQQKPGQAPRLLIYDTSKLAFGIPARFSGSGSGTDFTLTISSLEPEDFAVYYCFQGSVYPFTFGQGTKLEIK ... yes
8. CNG-CD19-708 (antibody, V domains shown) VH: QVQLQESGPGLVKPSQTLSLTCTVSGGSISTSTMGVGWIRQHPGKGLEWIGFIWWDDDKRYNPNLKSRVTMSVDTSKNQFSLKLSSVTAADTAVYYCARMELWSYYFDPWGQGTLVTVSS VL: EIVLTQSPATLSLSPGERATLSCSASSSVGYMHWYQQKPGQAPRLLIYDTSKLSSGIPARFSGSGSGTDFTLTISSLEPEDFAVYYCFQGSVYPFTFGQGTKLEIK ... yes
9. CNG-CD19-705 (antibody, V domains shown) VH: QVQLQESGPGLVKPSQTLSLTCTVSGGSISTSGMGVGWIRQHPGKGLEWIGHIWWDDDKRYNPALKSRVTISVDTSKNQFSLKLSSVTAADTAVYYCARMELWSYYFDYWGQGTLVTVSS VL: EIVLTQSPATLSLSPGERATLSCSASSSVGYMHWYQQKPGQAPRLLIYDTSSLASGIPARFSGSGSGTDFTLTISSLEPEDFAVYYCFQGSVYPFTFGQGTKLEIK ... no
